Would you kindly list hAMY3R EC50 (cAMP) for each of these binders?
# system.tested: T1, hAMY3R (human, UniProt P30988)
# T1 sequence 1: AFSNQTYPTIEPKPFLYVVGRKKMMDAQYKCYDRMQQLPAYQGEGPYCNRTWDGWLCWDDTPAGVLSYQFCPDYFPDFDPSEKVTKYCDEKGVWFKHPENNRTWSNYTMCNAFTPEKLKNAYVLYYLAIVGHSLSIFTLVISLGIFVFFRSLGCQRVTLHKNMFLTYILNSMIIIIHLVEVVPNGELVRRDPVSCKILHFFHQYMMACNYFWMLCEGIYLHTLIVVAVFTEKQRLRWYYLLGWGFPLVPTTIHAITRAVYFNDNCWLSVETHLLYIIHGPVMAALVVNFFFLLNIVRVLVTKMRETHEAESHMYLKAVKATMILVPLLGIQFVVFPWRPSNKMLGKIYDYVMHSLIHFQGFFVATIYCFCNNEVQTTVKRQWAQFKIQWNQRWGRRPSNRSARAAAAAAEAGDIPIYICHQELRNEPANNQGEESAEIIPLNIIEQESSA
# T1 sequence 2: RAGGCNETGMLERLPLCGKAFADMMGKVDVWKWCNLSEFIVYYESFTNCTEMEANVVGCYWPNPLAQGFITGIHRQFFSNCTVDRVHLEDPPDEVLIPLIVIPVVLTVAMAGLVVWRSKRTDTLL
# test.protocol: cell-based or functional assay
Numbered stars: 1 amine (or outer) side, 2 acyl side, 3 side chain; on linkers, the order of the positions; unused ones are H or OH. Bridge positions count the residues as written; N and C are the ends. Square brackets hold non-standard residues; d marks the D form. Side chains are listed from the residue outwards. Ends that are not written are not given here. * marks the point of attachment. C20 diacid = O=C(O)CCCCCCCCCCCCCCCCCCC(=O)*; γGlu = O=C(O)[C@H](CCC(=O)[*:2])N[*:1]; Hyp = O=C(O)[C@@H]1C[C@@H](O)CN1; Cit = NC(=O)NCCC[C@H](N)C(=O)O; AEEA = NCCOCCOCC(=O)O
Express it in nM; write the number only.

[ask] Look at this binder and give its reported hAMY3R EC50 (cAMP). {C20 diacid-γGlu}-GCRFGTCTVQRLAHFLYQFTDKDKDNVAPRTKVGPQGY-NH2 (disulfide 2-7 (inferred); ends not checked) [SEQ ID NO: 392]
[reply] 0.113

[ask] Look at this binder and give its reported hAMY3R EC50 (cAMP). KCNTATCTVQRLAEQIYQFTDKDKK([AEEA-AEEA-γGlu-C20 diacid])NVAPPTNVGSNG[Hyp]-NH2 (disulfide 2-7 (inferred); not fully specified (N-terminus); ends not checked) [SEQ ID NO: 40]
[reply] 0.01

[ask] Look at this binder and give its reported hAMY3R EC50 (cAMP). GCRTGTCTVQ[Cit]LAHQIYQFTDKDKDNVAPRTNIGPQG[Hyp]-NH2 (disulfide 2-7 (inferred); ends not checked) [SEQ ID NO: 280]
[reply] 0.024

[ask] Look at this binder and give its reported hAMY3R EC50 (cAMP). KCNTATCATQRLANFLVHSSNNFGAIAPSTKIGPNGY [SEQ ID NO: 128]
[reply] 0.028
